# Test system: Zika virus NS2B-NS3 protease (unlinked complex)
# Protocol Notes: Primary screen GU Rhodamine qHTS for Zika virus inhibitors: Unlinked NS2B-NS3 protease assay (AID 1347159); also: nearly all actives have a fitted effect of over 60% in size
# Applied Conditions: Recombinant ZIKV NS2B-NS3 protease, Rhodamine110 substrate fluorescence; series mostly up to 107 µM
Results filed as inconclusive are left out. The source made the active and inactive calls. Calls follow the shape of the dose curve; as a rule, active = well fitted inhibition curve with a large enough effect; inconclusive = small, poorly fitted or top-dose-only effect; inactive = no such curve, though single readings can be large or run the other way. Where a SMILES comes first, the peptide text is derived from it. The star is where a group is joined. PhAc = O=C(Cc1ccccc1)*
Outcomes: YES = active, NO = inactive

- CC(C)=CC1C[C@](C)(O)[C@@H]2[C@H]3CCC4[C@@]5(C)CC[C@H](O[C@@H]6OC[C@H](O)[C@H](O[C@@H]7O[C@H](CO[C@@H]8O[C@H](CO)[C@@H](O)[C@H](O)[C@H]8O)[C@@H](O)[C@H](O)[C@H]7O)[C@H]6O[C@@H]6O[C@@H](C)[C@H](O)[C@@H](O)[C@H]6O)C(C)(C)[C@@H]5CC[C@@]4(C)[C@@]34CO[C@@]2(C4)O1 (some centres not stated): NO
- CC(C)=CCC/C(C)=C/CO[C@@H]1O[C@H](CO[C@@H]2OC[C@](O)(CO)[C@H]2O)[C@@H](O)[C@H](O)[C@H]1O: NO
- COc1cc(C2Oc3c(OC)cc(CCCO)cc3C2CO)ccc1O (configuration not stated): YES
- C=C1CC23CC1CCC2C12OC(=O)C(C)(C(O)C(O)C1O)C2C3C(=O)O (configuration not stated): NO
- C[C@@H]1[C@H](O)[C@@H]2OC(=O)C3=C2[C@H](CCC3)[C@@]12C[C@@H](c1ccoc1)OC2=O: NO
- O=C(O[C@@H]1O[C@H](CO)[C@@H](O)[C@H](O)[C@H]1O)c1ccccc1: NO
- CCOC(=O)CNC(=O)[C@@H]1CCCN1C(=O)Cc1ccccc1 (PhAc-Pro-Gly-OEt): NO

---

# System: Es-2
# Protocol Notes: Primary qHTS to identify gynecologic anti-cancer compounds using libraries of approved drugs and bioactive compounds (AID 1345084); also: % is scaled to controls: 0 for no effect and ±100 for the full control effect; nearly all actives have a fitted effect of over 55% in size
# Applied Conditions: Gynecologic cancer cell panel viability, ATPlite luminescence, 48 h; series mostly up to 57.5 µM
Records with an inconclusive call do not appear. Calls of active or inactive are those of the source. Calls come from the whole dose curve; as a rule, active = well fitted cell-killing curve with a large enough effect; inconclusive = small, poorly fitted or top-dose-only effect, or effect the other way; inactive = flat fitted curve, though single readings scatter.
Value Type: activity change, negative = cytotoxicity

• CCOC(=O)c1ccc(NC2CCCCC2)c(N)c1 = inactive
• O=C(Nc1ccn(Cc2c(F)cccc2C(F)(F)F)n1)c1c(F)cccc1F = 0.101% [at 11.6 µM] (inactive)
• CC1=CC(=O)CC(C)(C)C1CO[C@@H]1O[C@H](CO)[C@@H](O)[C@H](O)[C@H]1O (some centres undefined) = inactive
• C=C(C)[C@@H]1CC[C@]2(C(=O)O)CC[C@]3(C)[C@H](CCC4[C@@]5(C)CCC(=O)C(C)(C)C5C(O)C[C@]43C)C12 (some centres undefined) = inactive
• O=C(c1c2ccccc2cc2ccccc12)N1CCC(N2CCC[C@@H](C(=O)N3CCOCC3)C2)CC1 = inactive
• OCC1=C[C@@H](O)[C@@H]2C=CO[C@@H](O[C@@H]3O[C@H](CO)[C@@H](O)[C@H](O)[C@H]3O)[C@H]12 = inactive
• CC1(C)CC[C@]2(C(=O)O[C@@H]3O[C@H](CO)[C@@H](O)[C@H](O)[C@H]3O)CC[C@]3(C)C(=CCC4[C@@]5(C)C[C@@H](O)[C@H](O)[C@@](C)(CO)C5[C@H](O)C[C@]43C)C2[C@@H]1O (some centres undefined) = inactive
• c1ccc2c(Nc3nnc(-c4ccncc4)s3)cccc2c1 = inactive
• C[C@@H]1O[C@@H](O[C@H]2[C@H](OC(=O)[C@]34CCC(C)(C)C[C@H]3C3=CCC5[C@@]6(C)CC[C@H](O[C@@H]7O[C@H](CO[C@@H]8OC[C@H](O)[C@H](O)[C@H]8O)[C@@H](O)[C@H](O)[C@H]7O)C(C)(C)C6CC[C@@]5(C)[C@]3(C)C[C@H]4O)OC[C@@H](O)[C@@H]2O)[C@H](O)[C@H](O[C@@H]2OC[C@](O)(CO)[C@H]2O)[C@H]1O[C@@H]1OC[C@H](O)[C@H](O[C@@H]2OC[C@@H](O)[C@H](O)[C@H]2O)[C@H]1O (some centres undefined) = 8.45% [at 6.55 µM] (inactive)
• CC(C/C=C/C(C)(C)O)C1CCC(C)(O)C(O)C1 (centres undefined) = inactive
• C[C@@H]1CC[C@]2(C(=O)O[C@@H]3O[C@H](CO[C@@H]4O[C@H](CO)[C@@H](O)[C@H](O)[C@H]4O)[C@@H](O)[C@H](O)[C@H]3O)CC[C@]3(C)C(=CCC4[C@@]5(C)CC[C@H](O)[C@](C)(C(=O)O)C5CC[C@]43C)[C@@H]2[C@]1(C)O (some centres undefined) = 6.01% [at 11.6 µM] (inactive)
• C/C=C1/[C@H](O[C@@H]2O[C@H](CO)[C@@H](O)[C@H](O)[C@H]2O)OC=C(C(=O)OC)[C@H]1CC(=O)OCCc1ccc(O)c(O)c1 = inactive
• CN1CCN(C2=Nc3ccccc3Nc3ccc(O)cc32)CC1 = inactive
• COC(=O)C1=CO[C@@H](O[C@@H]2O[C@H](CO)[C@@H](O)[C@H](O)[C@H]2O)[C@@H]2[C@@H](C(=O)O)CC[C@H]12 = inactive

---

The entries below come with measured Z-AUC values attached.
# Protocol Notes: qHTS drug screen for cell cycle checkpoint inhibitors in PARPi-resistant BRCA-mutant ovarian cancer cell lines. (AID 1963452)
# Applied Conditions: PEO1/OlaR viability, CellTiter-Glo luminescence, 96 h; measured here: PEO4 Z-AUC; stronger effect = lower value
Value Type: Z-AUC

• CCCCOc1nc(N)c2c(n1)N(Cc1cccc(CN3CCCC3)c1)CC(=O)N2 = -0.664
• Nc1ncnc2c1c(COc1cccc(Cl)c1)nn2C1CCOCC1 = -0.767
• C=C1C[C@@]2(O)O[C@@]3(C[C@H]2C(C)C)[C@@H](C)CC[C@@H]13 = -0.147
• Cc1ccccc1-n1nc(-c2c(-c3ccc(F)cc3)nn3c2NC[C@@H](CO)C3)ccc1=O = 0.209
• CC(C)[C@](O)(c1ccc2cc(OC(F)F)c(OC(F)F)cc2c1)c1cn[nH]n1 = -0.604

---

# Test system: OV90
# Protocol Notes: Primary qHTS to identify gynecologic anti-cancer compounds using libraries of approved drugs and bioactive compounds (AID 1345084); also: % is scaled to controls: 0 for no effect and ±100 for the full control effect; nearly all actives have a fitted effect of over 55% in size
# Applied Conditions: Gynecologic cancer cell panel viability, ATPlite luminescence, 48 h; series mostly up to 57.5 µM
Results filed as inconclusive are left out. The source made the active and inactive calls. The call rests on the fitted dose curve; in most records, active means well fitted cell-killing curve with a large enough effect; inconclusive means small, poorly fitted or top-dose-only effect, or effect the other way; inactive means flat fitted curve, though single readings scatter.
Value Type: activity change, negative = cytotoxicity

* C[C@@H]1O[C@@H](O[C@H]2[C@H](O[C@H]3[C@H](O[C@H]4CC[C@@]5(C)C(CC[C@]6(C)C5CC=C5[C@@H]7CC(C)(C)C[C@@H](O)[C@]7(C)CC[C@]56C)[C@@]4(C)CO)O[C@H](C(=O)O)[C@@H](O)[C@@H]3O)O[C@H](C(=O)O)[C@H](O)[C@@H]2O)[C@H](O)[C@H](O)[C@H]1O (some centres undefined) | 2.01% [at 11.6 µM] (inactive)
* CC(=O)NC1C(OC2CCC3(C)C(CCC4(C)C3CC=C3C5CC(C)(C)CCC5(C(=O)O)C(O)CC34C)C2(C)C)OC(CO)C(O)C1O (centres undefined) | inactive
* CC1(C)C=Cc2c(ccc3c2[N+]([O-])=C2C3(O)CC34NC(=O)C5(CCCN5C3=O)CC4C2(C)C)O1 (centres undefined) | inactive
* CC(C)=CCC/C(C)=C/CO[C@@H]1O[C@H](CO[C@@H]2O[C@@H](CO)[C@H](O)[C@H]2O)[C@@H](O)[C@H](O)[C@H]1O | inactive
* CC(O)C(=O)/C=C/C=C/C(=O)OC1C=C2COC(=O)C2(O)C2(C)CCCC(C)(C)C12 (centres undefined) | inactive
* CC1(C)CC[C@]2(C(=O)O[C@@H]3O[C@H](CO)[C@@H](O)[C@H](O)[C@H]3O)CC[C@]3(C)C(=CCC4[C@@]5(C)CC[C@H](O[C@@H]6O[C@H](C(=O)O)[C@@H](O[C@@H]7O[C@H](CO)[C@@H](O)[C@H](O)[C@H]7O)[C@H](O)[C@H]6O)C(C)(C)C5CC[C@]43C)C2C1 (some centres undefined) | 3.65% [at 11.6 µM] (inactive)
* C=CC(C)(C)C12Nc3c(ccc4c3OC(C)(C)C=C4)C1(O)CC1C(=O)N3CCCC3C(=O)N12 (centres undefined) | inactive
* C=C1C(O)CCC2(C)CC3(OC)OC(=O)C(C)=C3CC12 (centres undefined) | inactive
* C=C1CCC2C(C)(C)CC(O)CC2(C)C1CCC(C)CCOC(=O)CCC(=O)O (centres undefined) | inactive
* CC(CCO)CCC1C2(C)CCCC(C)(C)C2CC[C@@]1(C)O (some centres undefined) | inactive
* C/C=C/C(=O)OC1/C=C/C(O)C(OC(C)=O)CCC(=O)OC1C (centres undefined) | inactive
* C=C(C)[C@@H]1CC[C@]2(C(=O)O)CC[C@]3(C)[C@H](CCC4[C@@]5(C)CCC(=O)C(C)(C)C5C(O)C[C@]43C)C12 (some centres undefined) | inactive
* C[C@@H]1CC2OC(=O)C3=C2C(CCC3O)[C@@]12C[C@@H](c1ccoc1)OC2=O (some centres undefined) | inactive
* CC(C)=CC[C@H]1O[C@]2(O)C([C@H]3CCC4[C@@]5(C)CC[C@H](O[C@@H]6O[C@H](CO)[C@H](O)[C@H](O[C@@H]7O[C@H](CO)[C@@H](O)[C@H](O)[C@H]7O)[C@H]6O[C@@H]6O[C@@H](C)[C@H](O)[C@@H](O)[C@H]6O)C(C)(C)C5CC[C@@]4(C)[C@]3(C)[C@H]2O)[C@@]1(C)O (some centres undefined) | -2.06% [at 11.6 µM] (inactive)
